- ASSAY NOTES: Solution stability test (residual ratio and generation of active form in buffers of pH 2.0 to 9.0)
- Assay type: physicochemical
- ASSAY SETUP: pH3.0 buffer, 25° C., 25 umol/L, 12 hr
Structures can show the parent of a compound that is named as a salt.
EXPERIMENTAL ENDPOINT: Residual ratio (%)
State the answer as a number, implicitly in %.

For record Cc1cc(OC(=O)NCCNCC(=O)O)c2ccccc2c1OC(=O)NCCNCC(=O)O [Example 2, dihydrochloride] the listed Residual ratio is 100

For record CN1CC[C@H](c2c(OC(=O)N(C)CCN)cc(O)c3c(=O)cc(-c4ccccc4Cl)oc23)[C@H](O)C1 [Example 8] the listed Residual ratio is 100

For record C[C@H]1COc2c1c(OC(=O)NCCNCC(=O)O)c(OC(=O)NCCNCC(=O)O)c1c3c(ccc21)C(C)(C)CCC3 [Example 12, dihydrochloride] the listed Residual ratio is 98.4

For record C[C@H]1COc2c1c(OC(=O)NCCCNCC(=O)O)c(OC(=O)NCCCNCC(=O)O)c1c3c(ccc21)C(C)(C)CCC3 [Example 13, dihydrochloride] the listed Residual ratio is 99.6

For record CC(=O)c1cc2c(OC(=O)NCCNCC(=O)O)c3ccsc3c(OC(=O)NCCNCC(=O)O)c2o1 [Example 1, dihydrochloride] the listed Residual ratio is 90.9

For record CC(=O)c1cc2c(O)c3c(O)cccc3c(OC(=O)NCCCN)c2o1 [Reference Example 9, hydrochloride] the listed Residual ratio is 99.5

For record NCCCNC(=O)Oc1c(OC(=O)NCCCN)c(-c2ccccc2)c2c(c1-c1ccccc1)OCO2 [Example 6] the listed Residual ratio is 100
